# Tested on: S180 tumor
# test-description: Biodistribution in tumor-bearing mice
# Type: in vivo
# condition-summary: 120 min, i.v., mice bearing S180 tumor, mean ± SD
# Procedure: The mice bearing S180 tumors were injected intravenously via the tail vein respectively with the solutions (0.1 mL, 370 kBq) containing the radioactive drugs of Examples 1-4. […] After dissection, the heart, liver, lung, kidney, spleen, bone, muscle, small intestine, blood and tumors were harvested, and measured for radioactivity with the γ-counter. The biodistribution individual organs or tissues was expressed as the percentage of the injected dose per gram of organ or tissue (% ID/g).
quantity-name: Muscle (% ID/g)
Reply numerically in % ID/g, unit not repeated.

[ask] # input compound: O=C(Cc1ccc(C[N+]#[C][99Tc+]([C]#[N+]Cc2ccc(CC(=O)NC3C(O)OC(CO)C(O)C3O)cc2)([C]#[N+]Cc2ccc(CC(=O)NC3C(O)OC(CO)C(O)C3O)cc2)([C]#[N+]Cc2ccc(CC(=O)NC3C(O)OC(CO)C(O)C3O)cc2)([C]#[N+]Cc2ccc(CC(=O)NC3C(O)OC(CO)C(O)C3O)cc2)[C]#[N+]Cc2ccc(CC(=O)NC3C(O)OC(CO)C(O)C3O)cc2)cc1)NC1C(O)OC(CO)C(O)C1O (stereo not drawn) [^99mTc-4-CNMBDG] ; wanted: its Muscle
[reply] 0.86

[ask] # input compound: O=C(NC1C(O)OC(CO)C(O)C1O)c1cccc(C[N+]#[C][99Tc+]([C]#[N+]Cc2cccc(C(=O)NC3C(O)OC(CO)C(O)C3O)c2)([C]#[N+]Cc2cccc(C(=O)NC3C(O)OC(CO)C(O)C3O)c2)([C]#[N+]Cc2cccc(C(=O)NC3C(O)OC(CO)C(O)C3O)c2)([C]#[N+]Cc2cccc(C(=O)NC3C(O)OC(CO)C(O)C3O)c2)[C]#[N+]Cc2cccc(C(=O)NC3C(O)OC(CO)C(O)C3O)c2)c1 (stereo not drawn) [^99mTc-3-CNPEDG] ; wanted: its Muscle
[reply] 0.16

[ask] # input compound: O=C(NC1C(O)OC(CO)C(O)C1O)c1ccc(CC[N+]#[C][99Tc+]([C]#[N+]CCc2ccc(C(=O)NC3C(O)OC(CO)C(O)C3O)cc2)([C]#[N+]CCc2ccc(C(=O)NC3C(O)OC(CO)C(O)C3O)cc2)([C]#[N+]CCc2ccc(C(=O)NC3C(O)OC(CO)C(O)C3O)cc2)([C]#[N+]CCc2ccc(C(=O)NC3C(O)OC(CO)C(O)C3O)cc2)[C]#[N+]CCc2ccc(C(=O)NC3C(O)OC(CO)C(O)C3O)cc2)cc1 (stereo not drawn) [^99mTc-4-CNPeDG] ; wanted: its Muscle
[reply] 0.10
